Tested on: UACC-62 melanoma
protocol summary: NCI-60 one-dose screen, 48 h
particulars: 10 µM unless noted
This is part of a sample that, as a whole, favours compounds with a hit. Of some 83,000 tested, about 20% had one in any assay. Active and inactive are the calls of the source. The calls were made as follows: active = growth percent below 10; inactive = the rest.
Possible outcomes: active, inactive

{"compound": "COc1ccc(CCC2c3c(cc4c(c3OC)OCO4)CCN2C)cc1 (stereo not drawn)", "label value": "active"}
{"compound": "CC1(C)CC[C@]2(C(=O)O)CC[C@]3(C)C(=CCC4[C@@]5(C)C[C@@H](O)[C@@H]6OC(c7ccccc7Br)OC[C@@]6(C)C5CC[C@]43C)C2C1 (stereo partly drawn)", "label value": "inactive"}
{"compound": "COc1ccc(-c2ccc(SCC(=O)Nc3ccc(S(N)(=O)=O)cc3Br)nn2)cc1", "label value": "inactive"}

----------
Listed compounds paired with reported growth
System: EKVX NSCLC
protocol summary: NCI-60 one-dose screen, 48 h (100 = growth as untreated, 0 = no growth, -100 = all killed)
particulars: 10 µM unless noted
About 83,000 compounds went through this panel and 20% of them were active in at least one assay; those are over-represented in the sample as a whole.

{"mol smiles": "COc1ccc(-c2ccc(SCC(=O)Nc3ccc(S(N)(=O)=O)cc3Br)nn2)cc1", "growth / %": 78}
{"mol smiles": "COc1ccc2[nH]cc(-c3nnc(N)nc3-c3cn(C)c4ncc(Br)cc34)c2c1", "growth / %": 88.7}
{"mol smiles": "COc1cccc(-c2nc(Nc3ccc(S(N)(=O)=O)cc3)c3ccccc3n2)c1", "growth / %": 45.5}
{"mol smiles": "O=c1[nH]c2ccccc2cc1CSc1cccc(Nc2nccc(-c3ccc4ccccc4c3)n2)c1", "growth / %": 95.4}
{"mol smiles": "Nc1cccc(SCc2cc3ccccc3[nH]c2=O)c1", "growth / %": 43.4}
{"mol smiles": "Cc1ccc(NC(=O)CN2CCN(c3ncnc4c3cnn4-c3ccccc3)CC2)cc1", "growth / %": 81}
{"mol smiles": "Cc1ccc(Cc2cnc(NC(=O)c3ccc(/C=C4\\SC(=S)N(C)C4=O)cc3)s2)cc1", "growth / %": 60}
{"mol smiles": "Cn1cc(-c2cc(N)n3nc(-c4cn(C)c5ccccc45)cc3n2)c2cc(Cl)ccc21", "growth / %": -31}
{"mol smiles": "CCCCCCCCc1ccc(C(=O)Nc2ccc(C)cc2C(=O)O)cc1C", "growth / %": 88.4}
{"mol smiles": "N#Cc1c(-c2cccc(O)c2O)cc(-c2ccc3ccccc3c2)[nH]c1=O", "growth / %": 74.5}
{"mol smiles": "CC(=O)Nc1ccc(-c2cn(-c3cccc(C(=O)Nc4ccc(N5CCN(C)CC5)cc4)c3)nn2)cn1", "growth / %": 80.9}

----------
System: NCI-H226 lung
protocol summary: NCI-60 one-dose screen, 48 h
particulars: 10 µM unless noted
This is part of a sample that, as a whole, favours compounds with a hit. Of some 83,000 tested, about 20% had one in any assay. Calls of active or inactive are those of the source. How the source made its calls: active means growth percent below 10; inactive means the rest.
Outcome codes: active, inactive

{"compound": "Cc1cc2nc3c4ccccc4n(CCNCCN(C)C)c3nc2cc1C", "measurement target": "NCI-H226 lung", "label value": "inactive"}
{"compound": "CC(=O)OCC1OC(OC2C(COC(C)=O)OC(n3cc(COc4ccc5ccc(=O)oc5c4)nn3)C(OC(C)=O)C2OC(C)=O)C(OC(C)=O)C(OC(C)=O)C1OC(C)=O (stereo unspecified)", "measurement target": "NCI-H226 lung", "label value": "inactive"}
{"compound": "CCOc1ccc(C(=O)NC(=S)Nc2ccc(S(N)(=O)=O)cc2)cc1", "measurement target": "NCI-H226 lung", "label value": "inactive"}
{"compound": "O=C(c1ccc(OCCN2CCOCC2)cc1)C1[C@H](c2ccc(Cl)cc2)[C@@H](c2ccccc2)NC12C(=O)Nc1ccc(Br)cc12 (stereo partly specified)", "measurement target": "NCI-H226 lung", "label value": "inactive"}
{"compound": "O=C(O)Cn1c(O)c(/C=C2/C=c3cc4c(cc3=NC2=O)OCCO4)sc1=S", "measurement target": "NCI-H226 lung", "label value": "inactive"}
{"compound": "COc1ccc2c(c1)c(-c1cc3nc(-c4cn(C)c5ncc(Br)cc45)cc(N)n3n1)cn2C", "measurement target": "NCI-H226 lung", "label value": "active"}
{"compound": "C=C1CC[C@@H]2[C@]3(C)COC(c4cn[nH]c4-c4cccc(Cl)c4)O[C@@H]3CC[C@@]2(C)[C@@H]1C/C=C1/C(=O)OCC1O (stereo partly specified)", "measurement target": "NCI-H226 lung", "label value": "active"}
{"compound": "NS(=O)(=O)c1ccc(-n2cc(-c3cccc(NC(=O)c4ccc(Cl)c(C(F)(F)F)c4)c3)nn2)cc1", "measurement target": "NCI-H226 lung", "label value": "inactive"}
{"compound": "Cn1cc(-c2cc(N)n3nc(-c4cn(C)c5ccccc45)cc3n2)c2cc(Cl)ccc21", "measurement target": "NCI-H226 lung", "label value": "inactive"}
{"compound": "NC(=S)Nc1cccc(NC(N)=S)c1", "measurement target": "NCI-H226 lung", "label value": "inactive"}
{"compound": "C=C1CC[C@@H]2[C@]3(C)COC(c4cn[nH]c4-c4cccc(Br)c4)O[C@@H]3CC[C@@]2(C)[C@@H]1C/C=C1/C(=O)OCC1O (stereo partly specified)", "measurement target": "NCI-H226 lung", "label value": "active"}
